Values were extracted from patent US20220144848A1.

# TESTED_TARGET: human plasma kallikrein (Homo sapiens)
# Sequence (P03952 391-638 limits assumed): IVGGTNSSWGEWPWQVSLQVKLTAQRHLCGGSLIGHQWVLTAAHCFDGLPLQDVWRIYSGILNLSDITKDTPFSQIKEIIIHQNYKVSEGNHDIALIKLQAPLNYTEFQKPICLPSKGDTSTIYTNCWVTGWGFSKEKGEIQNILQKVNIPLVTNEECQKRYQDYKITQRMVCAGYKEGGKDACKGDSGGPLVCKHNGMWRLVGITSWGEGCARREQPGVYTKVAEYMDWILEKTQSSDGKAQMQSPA
# Sequence (P03952 20-390 partner limits assumed): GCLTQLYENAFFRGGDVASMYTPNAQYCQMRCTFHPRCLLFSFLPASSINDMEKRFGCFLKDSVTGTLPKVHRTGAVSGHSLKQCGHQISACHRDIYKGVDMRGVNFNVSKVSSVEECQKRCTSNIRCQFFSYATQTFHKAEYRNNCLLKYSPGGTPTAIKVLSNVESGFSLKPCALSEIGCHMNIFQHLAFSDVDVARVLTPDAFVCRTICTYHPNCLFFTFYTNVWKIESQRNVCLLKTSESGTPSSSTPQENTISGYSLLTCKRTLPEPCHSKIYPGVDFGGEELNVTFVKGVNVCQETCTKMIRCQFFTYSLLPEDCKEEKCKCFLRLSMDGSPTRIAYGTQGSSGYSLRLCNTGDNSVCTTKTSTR
# ASSAY_EXPLANATION: Determination of the plasma kallikrein activity (fluorogenic peptide substrate H-Pro-Phe-Arg-AMC)
# MEASUREMENT_SETUP: plasma kallikrein from Kordia, 15 min preincubation, 30 min at 22° C., fluorescence; some as mean values from multiple determinations
QUANTITY_NAME: pIC50
Answers are plain numbers, as −log10 of the molar value.

>>> reported_result("CO[C@@H](C)CC(C(=O)Nc1ccc(C(N)=O)cc1)n1cc2c(cc1=O)-c1cc(Cl)ccc1C[C@@H](C(F)(F)F)OC2 (mixture of isomers)")
6.49
>>> reported_result("CC1Cc2ccc(Cl)cc2-c2cc(=O)n(C(C[C@@H]3CCCCO3)C(=O)Nc3ccc(C(N)=O)nc3)cc2CO1 (mixture of isomers)")
6.29
>>> reported_result("C[C@@H]1Cc2ccc(Cl)cc2-c2cc(=O)n(C(CCOC(F)F)C(=O)Nc3ccc(C(N)=O)cc3)cc2CO1 (mixture of isomers)")
6.96
>>> reported_result("NC(=O)c1ccc(NC(=O)[C@H](C[C@@H]2CCCCO2)n2cc3c(cc2=O)-c2cc(Cl)ccc2C[C@@H](C(F)F)OC3)cc1F (single isomer, unassigned)")
6.43

Next up:
Noted for C[C@@H]1Cc2ccc(Cl)cc2-c2cc(=O)n([C@@H](C[C@@H]3CCCCO3)C(=O)Nc3ccc(C(N)=O)c(F)c3)cc2[C@H](C)O1 (single isomer, unassigned) : its pIC50 reads 7.19
